system: Hafnia alvei; test: MIC by agar dilution (NCCLS M7-A4), 288 enteropathogenic isolates, gemifloxacin and 15 other antimicrobials; assay type: cell-based; details: read-out: MIC (mg/L) 90%; Hafnia alvei N= 32
reported_endpoint: MIC (mg/L)
Write down the numeric answer in mg/L and omit the unit.

INPUT: So what does the record say about MIC for Cc1c(F)c(N2CCNC(C)C2)cc2c1c(=O)c(C(=O)O)cn2C1CC1 (stereo not drawn) ?
OUTPUT: 0.06

INPUT: Recorded MIC for CC1(C)S[C@@H]2[C@H](NC(=O)[C@H](N)c3ccc(O)cc3)C(=O)N2[C@H]1C(=O)O , please?
OUTPUT: 64

INPUT: GET /values?readout=MIC&item= C[C@H]1c2cccc(O)c2C(=O)C2=C(O)[C@]3(O)C(=O)C(C(N)=O)=C(O)[C@@H](N(C)C)[C@@H]3[C@@H](O)[C@@H]21
OUTPUT: 8

INPUT: Using the record for CO/N=C(\C(=O)N[C@@H]1C(=O)N2C(C(=O)O)=C(COC(C)=O)CS[C@H]12)c1csc(N)n1 , report its MIC.
OUTPUT: 0.5

INPUT: // lookup MIC for CC1(C)S[C@@H]2[C@H](NC(=O)[C@H](N)c3ccccc3)C(=O)N2[C@H]1C(=O)O
OUTPUT: 64

INPUT: Fill in: MIC of C[C@H]1COc2c(N3CCN(C)CC3)c(F)cc3c(=O)c(C(=O)O)cn1c23 is ___
OUTPUT: 0.03

INPUT: Entry CC1COc2c(N3CCN(C)CC3)c(F)cc3c(=O)c(C(=O)O)cn1c23 (stereo not drawn) has what MIC?
OUTPUT: 0.03

INPUT: Return reported MIC; argument: N[C@@H]1[C@H]2CN(c3nc4c(cc3F)c(=O)c(C(=O)O)cn4-c3ccc(F)cc3F)C[C@@H]12
OUTPUT: 0.06

INPUT: Which MIC reading was recorded for the compound CCn1cc(C(=O)O)c(=O)c2cc(F)c(N3CCNCC3)cc21 ?
OUTPUT: 0.03

* * *

test system: Proteus vulgaris; assay: MIC by NCCLS broth microdilution, 1100 Japanese clinical isolates 1997-1998; format: cell-based; details: Proteus vulgaris (n=25)
reported_endpoint: MIC Range

INPUT: Reported MIC Range for C[C@@H]1CN(c2c(F)c(N)c3c(=O)c(C(=O)O)cn(C4CC4)c3c2F)C[C@H](C)N1 : what is it?
OUTPUT: 0.063 to 2 µg/mL

INPUT: Find the recorded MIC Range belonging to NC1CCN(c2nc3c(cc2F)c(=O)c(C(=O)O)cn3-c2ccc(F)cc2F)C1 (centres unmarked) and report it.
OUTPUT: 0.063 to 1 µg/mL

INPUT: I am curious: what MIC Range value has been reported for N[C@@H]1[C@H]2CN(c3nc4c(cc3F)c(=O)c(C(=O)O)cn4-c3ccc(F)cc3F)C[C@@H]12 ?
OUTPUT: 0.063 to 2 µg/mL

INPUT: For the compound CO/N=C1\CN(c2nc3c(cc2F)c(=O)c(C(=O)O)cn3C2CC2)CC1CN (racemic) , what MIC Range is on record?
OUTPUT: 0.063 to 1 µg/mL

INPUT: I would be grateful if you could share the reported MIC Range for C[C@H]1COc2c(N3CCN(C)CC3)c(F)cc3c(=O)c(C(=O)O)cn1c23 .
OUTPUT: 0.032 to 1 µg/mL
